assay: qHTS of pediatric cancer cell lines to identify multiple opportunities for drug repurposing: Primary screen for TC32 cells (AID 1347089); conditions: TC32 Ewing sarcoma viability, CellTiter-Glo luminescence, 48 h; series mostly up to 45.8 µM; also: nearly all actives have a fitted effect of over 60% in size
Records with an inconclusive call do not appear. Active and inactive are the calls of the source. Calls follow the shape of the dose curve; as a rule, active = well fitted cell-killing curve with a large enough effect; inconclusive = small, poorly fitted or top-dose-only effect; inactive = flat fitted curve, though single readings scatter.
Bench note: report the call from YES for active, NO for inactive

Cn1c(=O)c2c(ncn2CC(=O)O)n(C)c1=O ... NO
CCCC(=O)O[C@]1(C(=O)COC(=O)CC)CC[C@H]2[C@@H]3CCC4=CC(=O)CC[C@]4(C)[C@H]3[C@@H](O)C[C@@]21C ... NO
CCOc1c(N2CCOCC2)cnn(C)c1=O ... NO
Cc1cccc(OCC(O)CNC(C)(C)C)c1C (centres undefined) ... NO
CCOc1ccccc1OCC1CNCCO1 (centres undefined) ... NO
O=C1[C@@H]2[C@H]3CC[C@H](C3)[C@@H]2C(=O)N1CCCCN1CCN(c2ncccn2)CC1 ... NO
OC(CCCN1CCCCC1)(c1ccccc1)c1ccccc1 ... NO
CO[C@@H]1[C@@H](OC)[C@H](C)[C@@](O)(CC(=O)O)O[C@H]1[C@H](C)[C@H]1O[C@@]2(CC[C@@](C)([C@H]3CC[C@@](C)([C@@H]4O[C@@H]([C@H]5O[C@](C)(O)[C@H](C)C[C@@H]5C)C[C@@H]4OC4C[C@H](OC)[C@@H](OC)[C@H](C)O4)O3)O2)C[C@H](O)[C@H]1C (some centres undefined) ... YES

What did the test return for O=C(COCCOCCOCC(=O)Nc1c(I)cc(I)c(C(=O)O)c1I)Nc1c(I)cc(I)c(C(=O)O)c1I ?
NO

Recorded call for COc1ccc(-n2nc(CCC(=O)N(C)O)cc2-c2ccc(Cl)cc2)cc1 ?
YES

Outcome? CCOc1ncc(F)c(=O)[nH]1
NO

I'd appreciate the recorded outcome for CCCOc1ccc2c(c1)CC[C@@H]1[C@@H]2CC[C@]2(C)C(OC)CC[C@@H]12 (some centres undefined) from this test.
NO

Lab log entry: N#CSCC(=O)O — outcome as called in the assay?
NO

// param item: CC(CC1c2ccccc2CCc2ccccc21)CN(C)C (centres undefined) ; yields the recorded call
NO

For CC(C)(C)CC(=O)OCC(=O)[C@@]1(O)CC[C@H]2[C@@H]3CCC4=CC(=O)C=C[C@]4(C)[C@H]3[C@@H](O)C[C@@]21C , which call appears in the assay record?
NO

Status in this test for C#CC(C)(CC)OC(=O)c1ccccc1C(=O)O (centres undefined) ?
NO

----------
Experiment: Primary qHTS for inhibitors of nuclear receptor binding SET domain protein 2 (NSD2) in an RCH-ACV wild type WT cells (2C) (AID 1645877); also: nearly all actives have a fitted effect of over 70% in size
Details: RCH-ACV (leukaemia line) NSD2 WT (2C) viability, CellTiter-Glo, 72 h; series mostly up to 44.9 µM
Source text: Assay Provider: Jonathan D. Licht, MD University of Florida College of Medicine, Gainesville, FL Mutations in epigenetic regulators are common in relapsed pediatric acute lymphoblastic leukemia (ALL). Here, we uncovered the mechanism underlying the relapse of ALL driven by an activating mutation of the NSD2 histone methyltransferase (p.E1099K). […] Correction of this mutation restored glucocorticoid sensitivity. […]
Inconclusive results are not listed. Active and inactive are the calls of the source. Calls come from the whole dose curve; as a rule, active = well fitted inhibition curve with a large enough effect; inconclusive = small, poorly fitted or top-dose-only effect; inactive = no such curve, though single readings can be large or run the other way.
Answer with one of the outcomes given here: active, inactive

Consider the worked cases shown below.
C[N+](C)(CCOc1ccccc1)Cc1cccs1 ... active
COC(=O)CCCCC(CCSS/C(CCO)=C(\C)N(C=O)Cc1cnc(C)nc1N)SC(C)=O (stereo not given) ... inactive
CCCC(=O)OCOC(=O)C1=C(C)NC(C)=C(C(=O)OC)C1c1cccc(Cl)c1Cl (stereo not given) ... inactive
CSCC[C@H](NC(=O)[C@H](Cc1c[nH]c2ccccc12)NC(=O)CCNC(=O)OC(C)(C)C)C(=O)N[C@@H](CC(=O)O)C(=O)N[C@@H](Cc1ccccc1)C(N)=O ... inactive
O=C(Oc1ccccc1)c1ccccc1O ... inactive

Please let me know the test result on file for CCCc1ccc(OCC(=O)N2CCN(C(=O)COc3ccc(CCC)cc3OC)CC2)c(OC)c1 .
inactive

Write down the call the test reported for this compound. Item: CSc1ccc(/C=C2/C(C)=C(CC(=O)O)c3cc(F)ccc32)cc1
inactive

Identify the outcome logged in this assay for the compound shown: COC(=O)c1ccc(NC(C)=O)cc1OC
inactive

Check the results log: what was the call for Cc1ncc(CO)c(CO)c1O ?
inactive

So what was the verdict on CN1Cc2cc(C(=O)N3CCC(C4CCNCC4)CC3)ccc2N[C@@H](CC(=O)O)C1=O in this test?
inactive

----------
test system: MKL-1; experiment: qHTS assay to identify novel small-molecules to repurpose for Merkel cell carcinoma treatment (AID 1296009); details: MCC and control cell lines, CellTiter-Glo viability, 72 h; series mostly up to 46 µM; also: % is scaled to controls: 0 for no effect and ±100 for the full control effect; nearly all actives have a fitted effect of over 60% in size
Results filed as inconclusive are left out. Calls of active or inactive are those of the source. The call rests on the fitted dose curve; in most records, active means well fitted inhibition curve with a large enough effect; inconclusive means small, poorly fitted or top-dose-only effect; inactive means flat fitted curve, though single readings scatter.
readoutLabel: outcome

See these solved cases before continuing.
C[C@]12CCC(=O)C=C1CC[C@@H]1[C@@H]2[C@@H](O)C[C@@]2(C)[C@H]1CC[C@]2(O)C(=O)COC(=O)CCC(=O)O ... inactive
CCN1CCN(c2cc(-c3ccc(F)cc3)c3c(n2)CCCCCC3)CC1 ... inactive
CCCCC(=O)OCC(=O)[C@H]1[C@H](C)C[C@H]2[C@@H]3C[C@H](F)C4=CC(=O)C=C[C@]4(C)[C@@]3(F)[C@@H](O)C[C@@]21C ... inactive
NC(=O)NS(=O)(=O)c1ccc(Cl)cc1 ... inactive
OC1(c2ccccc2)CCNCC1 ... inactive
CCc1cc(S(=O)(=O)O)c2cc(C(C)C)cccc1-2 ... inactive
CCOC(=O)C(=O)CCCCCCl ... inactive
COc1ccc(CCC(C)=O)cc1 ... inactive
CSCC[C@H](NC(=O)[C@H](Cc1c[nH]c2ccccc12)NC(=O)CCNC(=O)OC(C)(C)C)C(=O)N[C@@H](CC(=O)O)C(=O)N[C@@H](Cc1ccccc1)C(N)=O ... inactive
COC(=O)/C=C\C(=O)OC ... inactive

The recorded outcome for Cc1ccc(/C=N/n2c(-c3ccccc3)csc2=S)cc1 is inactive

----------
system: HaCat; experiment: Cytotoxic Profiling of Annotated Libraries Using Quantitative High-Throughput Screening (AID 1296008); conditions: Five cell lines viability, CellTiter-Glo ATP luminescence, 48-72 h; also: nearly all actives have a fitted effect of over 60% in size
Records with an inconclusive call do not appear. Calls of active or inactive are those of the source. Calls come from the whole dose curve; as a rule, active = well fitted inhibition curve with a large enough effect; inconclusive = small, poorly fitted or top-dose-only effect; inactive = flat fitted curve, though single readings scatter.
# valid calls are True for active, False for inactive; nothing else

Examples from the recorded data:
C/C=C(/C(=C/C)c1ccc(OC(C)=O)cc1)c1ccc(OC(C)=O)cc1 ... False
COC(=O)/C=C\C(=O)OC ... False
Cc1cccc(C)c1NC(=O)c1ccc(N)cc1 ... False
CC(C)OP(=O)(CP(=O)(OC(C)C)OC(C)C)OC(C)C ... False
CO[C@@]1(NC(=O)CSC[C@@H](N)C(=O)O)C(=O)N2C(C(=O)O)=C(CSc3nnnn3C)CS[C@@H]21 ... False
CCN(CC)CC(=O)OCC(=O)[C@@]1(O)CC[C@H]2[C@@H]3CCC4=CC(=O)CC[C@]4(C)[C@H]3[C@@H](O)C[C@@]21C ... False
O=C(CCCl)NCc1ccccc1 ... False
COc1cc(C(=O)NC2CCCNC2)cc(OC)c1OC (stereo unspecified) ... False

Hey, what did the test say about CN1CC[C@H](c2c(O)cc(O)c3c(=O)cc(-c4ccccc4Cl)oc23)[C@H](O)C1 ?
True

Which outcome was assigned to COC(=O)/C=C(/C)N in this test?
False

What did this assay record as the result for CC(Oc1c(Cl)cccc1Cl)C1=NCCN1 (stereo unspecified) ?
False

----------
tested on: CRL-7250; assay: Cytotoxic Profiling of Annotated Libraries Using Quantitative High-Throughput Screening (AID 1296008); conditions: Five cell lines viability, CellTiter-Glo ATP luminescence, 48-72 h; stronger effect = lower value; also: nearly all actives have a fitted effect of over 60% in size; as to max response: % is scaled to controls: 0 for no effect and ±100 for the full control effect
Results filed as inconclusive are left out.
Reported max response values follow for various compounds
Quick note: give the figure in %, leave out the unit.

Solved entries (count: 3):
CN(C)CCOC1=Cc2ccccc2Sc2ccc(Cl)cc21 ... -2.09
Cc1ccc(CCn2c3c(c4cc(Cl)ccc42)CN(C)CC3)cn1 ... -3.39
CSCC[C@H](NC(=O)[C@H](Cc1c[nH]c2ccccc12)NC(=O)CCNC(=O)OC(C)(C)C)C(=O)N[C@@H](CC(=O)O)C(=O)N[C@@H](Cc1ccccc1)C(N)=O ... 0.728

response.value for C[N+]1(CC2COC(c3ccccc3)(c3ccccc3)O2)CCCCC1 (stereo not given) (field: max response) = 1.41

----------
assay: qHTS assay for small molecule agonists of retinoid X receptor alpha signaling (AID 588544); settings: HEK293T RXRa-UAS-bla, beta-lactamase reporter, 18 h; 530 nm emission
Inconclusive results are not listed.
Parameter: max response. Scope: all listed entries.
Please answer in the form of a number followed by its unit of measurement.

Below, each entry is followed by its recorded max response result.
COC(=O)c1c(Cl)c(Cl)c(C(=O)OC)c(Cl)c1Cl ... -4.07%
CCCC(=O)c1cc(O)c(O)cc1O ... 11.4%
Nc1ccc(O)cc1 ... 21.6%
Nc1cccc2c(N)cccc12 ... 9.18%
OCCOCCN1CCN(C(c2ccccc2)c2ccc(Cl)cc2)CC1 (configuration not stated) ... 11.6%

Input O=C(Oc1ccccc1)c1cccc(C(=O)Oc2ccccc2)c1 . Output max response: 15.8%

# max response of Cc1ncc(CO)c(CO)c1O = -11.9%
